- Test system: guinea pig ileum
- EXPERIMENT: spasmogenic effect on guinea pig ileum in vitro
- PARTICULARS: Cavia porcellus, read-out: Guinea pig Ileum: threshold dose for spasmogenic effect
Listing: minimal effective concentration of selected compounds
PROPERTY: minimal effective concentration

>>> result("COCCC[C@H](O)/C=C/[C@@H]1[C@@H](C/C=C\\CCCC(=O)O)[C@@H](O)C[C@H]1O [19-oxa PGF2α]")
"0.1 to 0.5 µg/mL"
>>> result("CCOCCC[C@H](O)/C=C/[C@H]1[C@H](O)CC(=O)[C@@H]1C/C=C\\CCCC(=O)O [19-oxa-ω-homo-PGE2]")
"0.1 µg/mL"
>>> result("CCOCC[C@H](O)/C=C/[C@H]1[C@H](O)CC(=O)[C@@H]1C/C=C\\CCCC(=O)O [18-oxa PGE2]")
"0.1 to 0.3 µg/mL"

---

- Tested on: guinea pig ileum
- EXPERIMENT: spasmogenic effect on guinea pig ileum in vitro
- PARTICULARS: Cavia porcellus, read-out: Guinea pig Ileum: threshold dose for spasmogenic effect
PROPERTY: minimal effective concentration

>>> result("COCCC[C@H](O)/C=C/[C@H]1[C@H](O)CC(=O)[C@@H]1C/C=C\\CCCC(=O)O [19-oxa PGE2]")
"0.1 to 0.5 µg/mL"
>>> result("CCCCC[C@H](O)/C=C/[C@H]1[C@H](O)CC(=O)[C@@H]1C/C=C\\CCCC(=O)O [PGE2, reference compound]")
"0.01 to 0.03 µg/mL"
>>> result("CCOCC[C@H](O)/C=C/[C@@H]1[C@@H](C/C=C\\CCCC(=O)O)[C@@H](O)C[C@H]1O [18-oxa PGF2α]")
"0.1 to 0.3 µg/mL"
>>> result("CCOCCC[C@H](O)/C=C/[C@@H]1[C@@H](C/C=C\\CCCC(=O)O)[C@@H](O)C[C@H]1O [19-oxa-ω-homo-PGF2α]")
"≥ 0.1 µg/mL"

---

- TARGET_OR_TEST_SYSTEM: norepinephrine stimulated lipolysis
- EXPERIMENT: inhibition of norepinephrine stimulated lipolysis
- PARTICULARS: read-out: K: inhibition constant for norepinephrine stimulated lipolysis
pKi: −log10 of the molar value.
We begin with a simple list: items and their reported pKi.
PROPERTY: pKi

>>> readout_number("CCCCC[C@H](O)/C=C/[C@H]1[C@H](O)CC(=O)[C@@H]1C/C=C\\CCCC(=O)O [PGE2, reference compound]")
6.40
>>> readout_number("CCOCCC[C@H](O)/C=C/[C@H]1[C@H](O)CC(=O)[C@@H]1C/C=C\\CCCC(=O)O")
5.40
>>> readout_number("COCCC[C@H](O)/C=C/[C@H]1[C@H](O)CC(=O)[C@@H]1C/C=C\\CCCC(=O)O")
5.60
